This collection of values is drawn from ChEMBL document CHEMBL4321800.

Biological target: Transcription factor GATA-4 (Mus musculus)
Experiment: Enhancement of mouse GATA4 expressed in Chlorocebus aethiops COS1 cells harboring NP-112 reporter gene assessed as BNP promoter-driven transcriptional activity at 10 uM after 24 hrs by luciferase reporter gene assay relative to control
Type: cell-based
measurement kind: Activity (%)
Only the number, expressed in %, is required.

>  <compound>
Cc1cc(-c2onc(C)c2C(=O)Nc2ccc3oc(-c4ccccc4)cc(=O)c3c2)no1

>  <target of assay>
Transcription factor GATA-4 (Mus musculus)

>  <measurement kind>
Activity

>  <units of measure>
%

>  <readout value>
120

$$$$
>  <compound>
Cc1onc(-c2ccccc2)c1C(=O)Nc1ccc(C(=O)OCCCC#N)cc1

>  <target of assay>
Transcription factor GATA-4 (Mus musculus)

>  <measurement kind>
Activity

>  <units of measure>
%

>  <readout value>
110

$$$$
>  <compound>
CCN(CC)c1ccc(NC(=O)c2cn(C)nc2-c2cc(C)on2)cc1

>  <target of assay>
Transcription factor GATA-4 (Mus musculus)

>  <measurement kind>
Activity

>  <units of measure>
%

>  <readout value>
130

$$$$
>  <compound>
CCc1noc(C)c1C(=O)Nc1ccc(N(CC)CC)cc1

>  <target of assay>
Transcription factor GATA-4 (Mus musculus)

>  <measurement kind>
Activity

>  <units of measure>
%

>  <readout value>
140

$$$$

Cc1onc(-c2ccccc2)c1C(=O)N(C1=NC(C)CS1)c1ccc(Cl)cc1 (stereo not given) yielded Activity of 220

CN(C)c1ccc(/N=C/c2c[nH]nc2-c2ccc(F)cc2)cc1 yielded Activity of 120

CCN(c1ccc(NC(=O)c2c(C)noc2-c2cc(C)on2)cc1)C(C)C yielded Activity of 120

CCN(CC)c1ccc(NC(=O)c2cnc3ncccn23)cc1 yielded Activity of 130

CC(C)c1ccc(NC(=O)c2noc3c2CCc2sccc2-3)cc1 yielded Activity of 120

CCN(CC)c1ccc(NC(=O)c2cc(C)oc2-c2cc(C)on2)cc1 yielded Activity of 140

---

Recorded Activity by entry
Target: Homeobox protein Nkx-2.5 (Mus musculus)
Test: Inhibition of mouse NKX2-5 expressed in Chlorocebus aethiops COS1 cells harboring 3xHA reporter gene assessed as protein-induced transcriptional activity at 10 uM after 24 hrs by luciferase reporter gene assay relative to control
Format: cell-based
Parameters: scale not given: the % may be the effect or the level left
Only the number, expressed in %, is required.

These recorded examples may help you get a feel for the data.
>  <input smiles>
CCN(CC)c1ccc(NC(=O)c2c(-c3ccccc3)nnn2CCc2ccccc2)cc1

>  <Activity, %>
34

$$$$
>  <input smiles>
CCN(CC)c1ccc(NC(=O)c2c(C)noc2-c2ccccc2)cc1

>  <Activity, %>
29

$$$$
>  <input smiles>
CCN(c1ccc(NC(=O)c2c(-c3ccccc3)noc2C)cc1)C(C)C

>  <Activity, %>
34

$$$$
>  <input smiles>
CCC(=O)N(Cc1ccc(N(CC)CC)cc1)c1c(-c2ccccc2)noc1C

>  <Activity, %>
34

$$$$

CCN(c1ccc(NC(=O)c2c(C)noc2-c2ccccc2)cc1)C(C)C yielded Activity of 31

---

Recorded Activity by entry
Molecular target: GATA4/NKX2-5 (Mus musculus) (UniProt Q08369+P42582)
Sequence (Q08369 whole entry): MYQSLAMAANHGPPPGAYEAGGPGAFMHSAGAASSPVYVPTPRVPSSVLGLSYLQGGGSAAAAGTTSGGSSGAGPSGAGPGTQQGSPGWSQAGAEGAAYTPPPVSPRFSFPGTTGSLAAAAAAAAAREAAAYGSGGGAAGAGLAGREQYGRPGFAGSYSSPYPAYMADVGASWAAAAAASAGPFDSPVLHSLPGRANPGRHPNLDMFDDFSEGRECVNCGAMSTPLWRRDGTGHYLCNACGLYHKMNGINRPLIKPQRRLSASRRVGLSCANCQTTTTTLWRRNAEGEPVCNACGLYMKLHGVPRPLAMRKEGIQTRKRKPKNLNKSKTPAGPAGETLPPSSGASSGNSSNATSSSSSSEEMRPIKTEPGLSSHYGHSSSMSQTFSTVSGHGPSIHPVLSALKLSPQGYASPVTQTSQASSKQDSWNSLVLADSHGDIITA
Assay: Modulation of mouse GATA4/mouse NKX2-5 protein-protein interaction expressed in Chlorocebus aethiops COS1 cells harboring 3xHA reporter gene assessed as transcriptional synergy at 10 uM after 24 hrs by luciferase reporter gene assay relative to control
Format: cell-based
Only the number, expressed in %, is required.

These recorded examples may help you get a feel for the data.
>  <input smiles>
CCN(CC)c1ccc(N(C)C(=S)c2c(-c3ccccc3)noc2C)cc1

>  <readout value>
91

$$$$
>  <input smiles>
CCN(CC)c1ccc(NC(=O)c2c(-c3ccsc3)noc2C)cc1

>  <readout value>
66

$$$$
>  <input smiles>
CCN(CC)c1ccc(NC(=O)c2cn(C)nc2-c2cc(C)on2)cc1

>  <readout value>
99

$$$$
>  <input smiles>
CCN(CC)c1ccc(NC(=O)c2c(-c3cc(C)on3)noc2C)cc1

>  <readout value>
100

$$$$
>  <input smiles>
CCN(CC)c1ccc(NC(=O)c2c(C)nc3ccccn23)cc1

>  <readout value>
78

$$$$

CCN(CC)c1ccc(NC(=O)c2c(-c3ccncc3)noc2C)cc1 yielded Activity of 61

CCN(CC)c1ccc(NC(=O)c2c(-c3ccccc3)noc2C)cc1Cl yielded Activity of 69

CCN(CC)c1ccc(NCc2c(-c3ccccc3)noc2C)cc1 yielded Activity of 100

CCCOC(=O)c1ccc(OCc2c(-c3ccccc3)noc2C)cc1 yielded Activity of 110

CCN(CC)c1ccc(C(=O)Nc2c(-c3ccccc3)noc2C)cc1 yielded Activity of 94

CCN(CC)c1ccc(NC(=O)c2c(-c3c(Cl)cccc3Cl)noc2C)cc1 yielded Activity of 110

---

Recorded Activity by entry
Target: Homeobox protein Nkx-2.5 (Mus musculus) (UniProt P42582)
Sequence (P42582 whole entry): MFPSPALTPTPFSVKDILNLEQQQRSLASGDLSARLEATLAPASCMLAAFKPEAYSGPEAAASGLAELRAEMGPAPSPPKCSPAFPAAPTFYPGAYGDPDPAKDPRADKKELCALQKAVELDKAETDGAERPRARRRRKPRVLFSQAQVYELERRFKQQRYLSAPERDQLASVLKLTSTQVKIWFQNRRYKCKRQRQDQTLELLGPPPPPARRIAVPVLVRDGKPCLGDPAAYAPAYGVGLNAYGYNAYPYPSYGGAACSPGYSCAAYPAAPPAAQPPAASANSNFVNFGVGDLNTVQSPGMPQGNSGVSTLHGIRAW
Experiment: Enhancement of mouse NKX2-5 expressed in Chlorocebus aethiops COS1 cells harboring 3xHA reporter gene assessed as protein-induced transcriptional activity at 10 uM after 24 hrs by luciferase reporter gene assay relative to control
Assay type: cell-based
Only the number, expressed in %, is required.

These recorded examples may help you get a feel for the data.
>  <compound>
Cc1onc(-c2ccccc2)c1C(=O)Nc1ccc(C(=O)OCCC#N)cc1

>  <measurement kind>
Activity

>  <units of measure>
%

>  <readout value>
130

$$$$
>  <compound>
Cc1onc(-c2ccccc2)c1C(=O)Nc1ccc(C(=O)OCCCCC#N)cc1

>  <measurement kind>
Activity

>  <units of measure>
%

>  <readout value>
150

$$$$
>  <compound>
CCN(CC)c1ccc(NC(=O)c2cn(C)cc2-c2cc(C)on2)cc1

>  <measurement kind>
Activity

>  <units of measure>
%

>  <readout value>
110

$$$$
>  <compound>
CCN(CC)c1ccc(NC(=O)c2cnc3ncccn23)cc1

>  <measurement kind>
Activity

>  <units of measure>
%

>  <readout value>
120

$$$$

CCN(CC)c1ccc(-n2c(=O)c3c(C)onc3c3ccccc32)cc1 yielded Activity of 110

Cc1cc(-c2onc(C)c2C(=O)Nc2ccc3oc(-c4ccccc4)cc(=O)c3c2)no1 yielded Activity of 110

C#CC[N+](CC)(CC)c1ccc(NC(=O)c2c(-c3ccccc3)noc2C)cc1 yielded Activity of 120

CCc1noc(C)c1C(=O)Nc1ccc(N(CC)CC)cc1 yielded Activity of 160

Cc1onc(-c2ccccc2)c1C(=O)N(C1=NC(C)CS1)c1ccc(Cl)cc1 (stereo not given) yielded Activity of 110

CN(C)c1ccc(/N=C/c2c[nH]nc2-c2ccc(F)cc2)cc1 yielded Activity of 140

---

Biological target: GATA4/NKX2-5 (Mus musculus) (UniProt Q08369+P42582)
Assay: Modulation of mouse GATA4/mouse NKX2-5 protein-protein interaction expressed in Chlorocebus aethiops COS1 cells harboring 3xHA reporter gene assessed as transcriptional synergy at 10 uM after 24 hrs by luciferase reporter gene assay relative to control
Assay type: cell-based
Recorded Activity by entry

These recorded examples may help you get a feel for the data.
>  <compound>
CC(=O)COC(=O)c1ccc(OCc2c(-c3ccccc3)noc2C)cc1

>  <target of assay>
GATA4/NKX2-5 (Mus musculus) (UniProt Q08369+P42582)

>  <Activity>
37%

$$$$
>  <compound>
CCN(CC)c1ccc(CNc2c(-c3ccccc3)noc2C)cc1

>  <target of assay>
GATA4/NKX2-5 (Mus musculus) (UniProt Q08369+P42582)

>  <Activity>
91%

$$$$
>  <compound>
CCN(CC)c1ccc(NC(=O)c2ccoc2CCc2cccs2)cc1

>  <target of assay>
GATA4/NKX2-5 (Mus musculus) (UniProt Q08369+P42582)

>  <Activity>
100%

$$$$
>  <compound>
CCN(CC)c1ccc(CN(C(=O)C(F)(F)F)c2c(-c3ccccc3)noc2C)cc1

>  <target of assay>
GATA4/NKX2-5 (Mus musculus) (UniProt Q08369+P42582)

>  <Activity>
52%

$$$$
>  <compound>
CCN(CC)c1ccc(CN(C(=O)Nc2ccc(C#N)cc2)c2c(-c3ccccc3)noc2C)cc1

>  <target of assay>
GATA4/NKX2-5 (Mus musculus) (UniProt Q08369+P42582)

>  <Activity>
85%

$$$$

Reported Activity (GATA4/NKX2-5 (Mus musculus) (UniProt Q08369+P42582)) for entry C=CCN(Cc1ccc(N(CC)CC)cc1)c1c(-c2ccccc2)noc1C is 53%

Reported Activity (GATA4/NKX2-5 (Mus musculus) (UniProt Q08369+P42582)) for entry CCN(CC)c1ccc(NC(=O)c2c(C(F)(F)F)nn(C)c2Oc2ccccc2)cc1 is 68%

---

Biological target: Homeobox protein Nkx-2.5 (Mus musculus)
Assay: Modulation of mouse NKX2-5 expressed in Chlorocebus aethiops COS1 cells harboring 3xHA reporter gene assessed as protein-induced transcriptional activity at 10 uM after 24 hrs by luciferase reporter gene assay relative to control
Type: cell-based
Field: label. Allowed values: fulfilled (Activity < 90%) or not fulfilled (Activity >= 90%).

Would you please look over these solved cases?
>  <molecule>
CCC(OC)c1ccc(OCc2c(-c3ccccc3)noc2C)cc1 (racemic)

>  <target of assay>
Homeobox protein Nkx-2.5 (Mus musculus)

>  <discrete label>
fulfilled

$$$$
>  <molecule>
Cc1onc(-c2ccccc2)c1C(=O)Nc1ccc(C(=O)OCCCC#N)cc1

>  <target of assay>
Homeobox protein Nkx-2.5 (Mus musculus)

>  <discrete label>
not fulfilled

$$$$
>  <molecule>
CCN(CC)c1ccc(NC(=O)c2c(-c3coc(C)n3)noc2C)cc1

>  <target of assay>
Homeobox protein Nkx-2.5 (Mus musculus)

>  <discrete label>
fulfilled

$$$$
>  <molecule>
CCN(CC)c1ccc(NC(=O)c2cc(C)oc2-c2cc(C)on2)cc1

>  <target of assay>
Homeobox protein Nkx-2.5 (Mus musculus)

>  <discrete label>
not fulfilled

$$$$
>  <molecule>
Cc1onc(-c2ccccc2)c1C(=O)Nc1ccc(-c2ccccc2)cc1

>  <target of assay>
Homeobox protein Nkx-2.5 (Mus musculus)

>  <discrete label>
not fulfilled

$$$$

A record lists CCN(CC)c1ccc(NC(=O)c2cnc(SC)n2-c2ccc(F)cc2)cc1 . Is its Activity below 90%?
fulfilled

A record lists Cc1onc(-c2ccccc2)c1C(=O)Nc1ccc2oc(-c3ccccc3)cc(=O)c2c1 . Is its Activity below 90%?
fulfilled
